- Assay explanation: Doxorubicin lethality, Balb/c mice
- Parameters: species or system Balb/c female mice
- Measurement setup: mouse, in vivo; 18 mg/kg ip; 30 days; Balb/c female; read-out: mortality within 30 days, intraperitoneal
Outcome measure: mortality at 720 h (%)
Answer format: numeric, % implied, no suffix.

Which mortality at 720 h reading was recorded for the molecule COc1cccc2c1C(=O)c1c(O)c3c(c(O)c1C2=O)C[C@@](O)(C(=O)CO)C[C@@H]3O[C@H]1C[C@H](N)[C@H](O)[C@H](C)O1 [doxorubicin, 14-hydroxydaunomycin] ? 100

----------
- Assay explanation: Doxorubicin lethality, Balb/c mice
- Design: species or system Balb/c female mice
- Measurement setup: mouse, in vivo; 18 mg/kg iv; Balb/c
Outcome measure: mortality

Which mortality reading was recorded for the molecule COc1cccc2c1C(=O)c1c(O)c3c(c(O)c1C2=O)C[C@@](O)(C(=O)CO)C[C@@H]3O[C@H]1C[C@H](N)[C@H](O)[C@H](C)O1 [doxorubicin, 14-hydroxydaunomycin] ? ~100%

----------
- Assay explanation: Effects of methylene blue on anthracycline toxicity, survival, Study No. 1 (Example II)
- Measurement setup: mouse, in vivo, 18 mg/kg
Outcome measure: mortality at 360 h

Which mortality at 360 h reading was recorded for the compound COc1cccc2c1C(=O)c1c(O)c3c(c(O)c1C2=O)C[C@@](O)(C(=O)CO)C[C@@H]3O[C@H]1C[C@H](N)[C@H](O)[C@H](C)O1 [doxorubicin, 14-hydroxydaunomycin] ? > 50%

----------
- Assay explanation: Doxorubicin lethality, CD2 F1 mice
- Format: in vivo
- Measurement setup: mouse, in vivo; 18 mg/kg ip; 30 days; CD2 F1; read-out: mortality within 30 days, intraperitoneal
Outcome measure: mortality at 720 h

Which mortality at 720 h reading was recorded for the compound COc1cccc2c1C(=O)c1c(O)c3c(c(O)c1C2=O)C[C@@](O)(C(=O)CO)C[C@@H]3O[C@H]1C[C@H](N)[C@H](O)[C@H](C)O1 [doxorubicin, 14-hydroxydaunomycin] ? > 80%

----------
- Assay explanation: Doxorubicin lethality, CD2 F1 mice
- Type: in vivo
- Measurement setup: mouse, in vivo; 18 mg/kg iv; CD2 F1
Outcome measure: mortality

Which mortality reading was recorded for the compound COc1cccc2c1C(=O)c1c(O)c3c(c(O)c1C2=O)C[C@@](O)(C(=O)CO)C[C@@H]3O[C@H]1C[C@H](N)[C@H](O)[C@H](C)O1 [doxorubicin, 14-hydroxydaunomycin] ? ~100%
